target: mPD1-HIS (mouse Programmed cell Death protein 1) (mouse, UniProt Q02242 25-169); assay: SPR; aptamer immobilized; 20 mM Tris-HCl pH 7.4, 140 mM NaCl, 5 mM MgCl2, 1 mM CaCl2, 1 mM KCl; FLAA/MST with 0.1% BSA and 0.05% Tween 20 (FLAA at RT); SPR without BSA, 0.005% Tween 20; details: protein: commercial; tags: C-terminal HIS; label: 5'-BiotinTEG (SPR kinetics); 5'-Cy5 (MST); none (screens)
Sequence (Q02242 25-169): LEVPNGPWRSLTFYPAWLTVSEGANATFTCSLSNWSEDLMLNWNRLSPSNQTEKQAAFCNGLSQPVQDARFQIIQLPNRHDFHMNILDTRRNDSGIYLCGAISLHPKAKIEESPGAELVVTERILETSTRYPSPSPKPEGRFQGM
QUANTITY MEASURED: Kd (nM)
Return type: number; implicit unit nM.

Q: Annotate the binder NDM1-H14-01 (ssDNA) DNA: GTATCTGGTGGTCTATGGCGTCATAGGTACCATGGGGGACTGCTCGGGATTGCGGATTCATGGCATAGACGACGAAGAAC with its measured Kd.
Ans: 0.0986
